# studySystem: full-length beta-Catenin (Uniprot ID P35222) (Homo sapiens (Human)) (UniProt P35222)
# Sequence (P35222 2-781 limits assumed): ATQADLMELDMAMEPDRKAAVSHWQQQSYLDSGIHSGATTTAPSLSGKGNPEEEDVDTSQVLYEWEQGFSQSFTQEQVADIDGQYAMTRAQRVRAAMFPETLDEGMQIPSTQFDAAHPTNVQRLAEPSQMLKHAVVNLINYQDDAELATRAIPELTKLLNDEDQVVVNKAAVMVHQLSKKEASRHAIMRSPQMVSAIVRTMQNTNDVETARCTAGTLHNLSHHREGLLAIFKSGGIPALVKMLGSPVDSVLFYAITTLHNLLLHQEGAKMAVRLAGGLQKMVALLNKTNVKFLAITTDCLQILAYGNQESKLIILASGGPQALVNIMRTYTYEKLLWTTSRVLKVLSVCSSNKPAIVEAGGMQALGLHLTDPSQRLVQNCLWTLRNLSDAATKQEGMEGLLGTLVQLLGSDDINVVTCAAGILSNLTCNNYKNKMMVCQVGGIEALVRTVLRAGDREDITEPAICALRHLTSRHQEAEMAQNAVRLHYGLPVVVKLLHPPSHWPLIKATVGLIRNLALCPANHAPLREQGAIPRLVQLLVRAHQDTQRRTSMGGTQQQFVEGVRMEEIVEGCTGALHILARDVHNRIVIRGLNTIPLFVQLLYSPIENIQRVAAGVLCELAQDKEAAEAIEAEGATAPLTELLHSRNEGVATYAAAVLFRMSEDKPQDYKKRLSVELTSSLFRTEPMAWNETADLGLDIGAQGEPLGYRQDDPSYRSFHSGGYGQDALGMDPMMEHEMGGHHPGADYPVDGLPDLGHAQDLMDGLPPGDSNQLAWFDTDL
# experimentalProtocol: fluorescence polarization competition; full-length beta-catenin, 5FAM-TCF4(10-53) probe
pIC50: −log10 of the molar value. Starred links: 1 amine or outer side, 2 acyl side, 3 side chain; linkers in the order of their positions; H or OH if unused. Positions of bridges follow the written chain, without caps; N, C: chain ends. Non-standard residues stand in square brackets, D forms with d. Primed or numbered codes have the meaning given here. PyrS2″ = (S)-3-amino-1-((pent-4-en-1-yloxy)carbonyl)pyrrolidine-3-carboxylic acid (stapling residue), C=CCCCOC(=O)N1CC[C@@](N[*:1])(C(=O)[*:2])C1; B5(5) = 2,2-bis(4-pentenyl)glycine, 2-amino-2-(pent-4-en-1-yl)hept-6-enoic acid (stitching residue), C=CCCCC(CCCC=C)(N[*:1])C(=O)[*:2]; TfeGA = (S)-2-amino-3-((carboxymethyl)(2,2,2-trifluoroethyl)amino)propanoic acid, O=C([C@H](CN(CC(=O)[*:3])CC(F)(F)F)N[*:1])[*:2]; PyrS2 = (S)-3-amino-1-((pent-4-en-1-yloxy)carbonyl)pyrrolidine-3-carboxylic acid, C=CCCCOC(=O)N1CC[C@@](N[*:1])(C(=O)[*:2])C1; B5 = 2-amino-2-(pent-4-en-1-yl)hept-6-enoic acid, C=CCCCC(CCCC=C)(N[*:1])C(=O)[*:2]; Bta = N[C@@H](Cc1csc2ccccc12)C(=O)O; αAllylPro = C=CC[C@@]1(C(=O)O)CCCN1; tBuAla = CC(C)(C)C[C@H](N)C(=O)O; 3Thi = N[C@@H](Cc1ccsc1)C(=O)O
quantityName: pIC50

Recorded results for 2 binders are shown here.
Ac-[αAllylPro]D[tBuAla][B5]NTAAFN[PyrS2][3Thi][Bta]W-NH2 (staple 1-4, 4-11; also: later eluting HPLC isomer) [I-2139]
6.01
Ac-[αAllylPro]D[tBuAla][B5(5)]D[TfeGA]AAFN[PyrS2″][3Thi][Bta]T-NH2 (staple 1-4, 4-11; also: staple isomer composition, earlier-eluting HPLC peak) [I-942]
5.89

P: Ac-[αAllylPro]D[tBuAla][B5(5)]D[TfeGA]AAFN[PyrS2″][3Thi][Bta]A-NH2 (staple 1-4, 4-11; also: staple isomer composition, later-eluting HPLC peak) [I-945]
Q: Ac-[αAllylPro]D[tBuAla][B5]NTAAFN[PyrS2][3Thi][Bta]H-NH2 (staple 1-4, 4-11; also: later eluting HPLC isomer) [I-2141]
Short answer wanted: higher pIC50, P or Q ? // output: label of the selected item
Q
